molecular target: Kras and SOS1 (biotin-tagged human Kras loaded with GDP, His-tagged human SOS1) (Homo sapiens, UniProt P01116, G12D); construct: made in house; host or cells: E. coli (stated for Kras only); test: Protein-protein interaction inhibition between Kras and SOS1 (KrasGl2D-SOS PPI) using AlphaScreen; type: binding; conditions: AlphaScreen; biotin-tagged human Kras loaded with GDP, His-tagged human SOS1; read-out: KRAS G12D-SOS PPI IC50
Sequence (P01116 1-188 isoform P01116-2 G12D): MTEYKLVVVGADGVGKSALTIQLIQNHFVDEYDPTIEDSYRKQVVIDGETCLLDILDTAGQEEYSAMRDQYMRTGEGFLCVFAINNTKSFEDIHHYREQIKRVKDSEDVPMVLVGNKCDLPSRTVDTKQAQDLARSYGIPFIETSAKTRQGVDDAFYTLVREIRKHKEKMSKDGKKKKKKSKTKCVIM
pIC50: −log10 of the molar value. Positions of bridges follow the written chain, without caps; N, C: chain ends. Non-standard residues stand in square brackets, D forms with d. Residues, ends and D or L forms follow the SMILES beside them. *: point of attachment. hPhe(3-F,4-CF3) = N[C@@H](CCc1ccc(C(F)(F)F)c(F)c1)C(=O)O; Phe(2-OCF3) = N[C@@H](Cc1ccccc1OC(F)(F)F)C(=O)O; NMePhe(4-Me) = CN[C@@H](Cc1ccc(C)cc1)C(=O)O; Phe(3-I) = N[C@@H](Cc1cccc(I)c1)C(=O)O; NMeCha = CN[C@@H](CC1CCCCC1)C(=O)O; NMeD = CN[C@@H](CC(=O)O)C(=O)O; NMeL = CN[C@@H](CC(C)C)C(=O)O; d(β3hA) = C[C@@H](N)CC(=O)O; NMeA = CN[C@@H](C)C(=O)O; NMeAib = CNC(C)(C)C(=O)O; Piperidide = C1CCN(*)CC1; Aze = O=C(O)[C@@H]1CCN1; Ac4c = NC1(C(=O)O)CCC1; Sar = CNCC(=O)O
Some compounds, each annotated with its measured pIC50.

COMPOUND	pIC50
CC[C@H](C)[C@@H]1NC(=O)[C@H](CC(C)C)N(C)C(=O)C[C@@H](C)NC(=O)[C@H](CC(C)C)N(C)C(=O)C2(CCC2)NC(=O)[C@@H]2CCCN2C(=O)[C@H](CCc2ccc(C(F)(F)F)c(F)c2)NC(=O)CN(C)C(=O)[C@H](CC2CCCCC2)N(C)C(=O)CN(C)C(=O)CN(C)C1=O [Compound 133] (cyclo([Ac4c][NMeL][d(β3hA)][NMeL]I[Sar][Sar][NMeCha][Sar][hPhe(3-F,4-CF3)]P))	7.64
CC[C@H](C)[C@@H]1NC(=O)[C@H](CC(C)C)N(C)C(=O)C[C@@H](C(=O)N2CCCCC2)N(C)C(=O)[C@H](CC(C)C)NC(=O)C(C)(C)N(C)C(=O)[C@H](Cc2ccccc2OC(F)(F)F)NC(=O)[C@H](Cc2cccc(I)c2)NC(=O)CN(C)C(=O)[C@H](Cc2ccc(C)cc2)N(C)C(=O)[C@@H]2CCN2C(=O)[C@H](C)N(C)C1=O [Compound 1129] ([NMeL]I[NMeA][Aze][NMePhe(4-Me)][Sar][Phe(3-I)][Phe(2-OCF3)][NMeAib]L[NMeD]-Piperidide; lactam N-11)	6.82

Reference source for all entries: patent US12371454B2
